tested on: BxPC3 (Pancreatic Cancer); experiment: Cellular Proliferation Assay, cell line D; type: cell-based; settings: Homo sapiens, BXPC-3; BxPC3, 72 hours, CelltiterBlue; read-out: Cell Line D antiproliferative IC50
Provide the reported IC50 of each item.

[ask] Tell me the measured IC50 of `CC(C)(CN)COc1cccc2ccc(-c3nnc4ccccn34)nc12` , please.
[reply] < 10 µM

[ask] Give its IC50 value. Item: `N[C@H]1CC[C@H](Oc2cccc3ccc(-c4nnc5ccccn45)nc23)CC1`
[reply] < 10 µM

[ask] Query: IC50; subject: c1cc(OCC2CCCNC2)c2nc(-c3nnc4ccccn34)ccc2c1 (stereo not drawn)
[reply] > 10 µM
